Settings: buffer; pH 7.4; 200.0 µM
The following compounds are shown together with reported solubility kinetic values.
Give the number; µg/mL is assumed, so skip it.

// known answers, use as guide
# COMPOUND, UNITS, solubility kinetic
records = [
    ("CC(C)(C)c1ccc(NC(=O)CON=C(N)c2ccccc2)cc1", "µg/mL", 3.8),
    ("O=C(c1ccco1)c1cn(CC(=O)N2CCCCCC2)c2ccccc12", "µg/mL", 1.4),
    ("COc1ccccc1NC(=S)NC(=O)CCc1ccccc1", "µg/mL", 0.7),
    ("COC(=O)C(C)Oc1ccc(-c2nccc(-c3ccc(F)cc3)n2)cc1 (centres undefined)", "µg/mL", 2.6),
    ("N#C/C(=C\\c1ccc(-c2ccccc2[N+](=O)[O-])o1)C(N)=O", "µg/mL", 2.2),
]

Recorded solubility kinetic for CS(=O)(=O)N(CC(=O)Nc1ccccc1F)C1CCCCC1 , please?
47.3

Recorded solubility kinetic for O=C(Nc1ccccn1)c1ccc(-c2ccccc2)cc1 , please?
0.9

Recorded solubility kinetic for COC(=O)c1c(NC(C)=O)sc(C(=O)Nc2ccccc2)c1C , please?
0.9

---

Details: buffer; pH 7.4; 200.0 µM
# label = T if solubility kinetic >= 30 µg/mL else F

# COMPOUND, CATEGORY
measured = [
    ("FC(F)(F)c1ccccc1-n1c(-c2cnccn2)n[nH]c1=S", "T"),
    ("C=C(C)COc1ccc(C2NC(=O)c3ccccc3O2)cc1OCC (stereo unspecified)", "F"),
    ("NC1=Nc2cccc3cccc1c23", "F"),
    ("O=C1Cc2ccccc2C(=O)N1Cc1cccc(Cl)c1", "F"),
    ("COCCn1c(/C=C/c2ccccc2)nc2ccccc21", "T"),
]

Say whether COc1ccccc1-n1nc(C)c(-c2ccccc2)c1N shows solubility kinetic of 30 µg/mL or more.
T

Say whether O=C(NCCCc1nc2ccccc2[nH]1)c1cccs1 shows solubility kinetic of 30 µg/mL or more.
T

Say whether CN(CCC#N)C(=O)COc1ccc(Br)cc1Cl shows solubility kinetic of 30 µg/mL or more.
T

Say whether COc1ccc(S(=O)(=O)N2CCN(C)CC2)cn1 shows solubility kinetic of 30 µg/mL or more.
T

Say whether Cc1c(C(=O)CN2CCCC(C)(C)C2)c2ccccc2n1C shows solubility kinetic of 30 µg/mL or more.
T

Say whether Cc1ccc(S(=O)(=O)NCc2ccncc2)c(C)c1C shows solubility kinetic of 30 µg/mL or more.
T

Say whether COc1ccc(N2CCN(C(CNC(=O)C(C)(C)C)c3ccco3)CC2)cc1 (stereo unspecified) shows solubility kinetic of 30 µg/mL or more.
T

Say whether CCOC(=O)N1CCN(c2cc(=O)n(C)c(=O)n2C)CC1 shows solubility kinetic of 30 µg/mL or more.
T

---

The following compounds are shown together with reported solubility kinetic values.
Details: buffer; pH 7.4; 200.0 µM
Give the number; µg/mL is assumed, so skip it.

// known answers, use as guide
# COMPOUND, METRIC, READOUT VALUE
data = [
    ("O=C(CNC(=O)c1ccco1)Nc1ccc(Cl)cc1", "solubility kinetic", 24.1),
    ("CCCCNC(=O)C(=O)Nc1cc2c3c(c1)CCC(=O)N3CCC2", "solubility kinetic", 1.5),
    ("COc1cc(OC)c(OC)cc1/C=C1/C(=O)N=C(N)N1C", "solubility kinetic", 34.5),
    ("Cc1cc(C(=O)OCC(=O)NC2CCCCC2C)c2ccccc2n1 (stereo unspecified)", "solubility kinetic", 6.3),
    ("CCc1noc(C)c1C(=O)OCC(=O)Nc1ccc2c(c1)OCO2", "solubility kinetic", 9.5),
    ("CCN(C(=O)COC(=O)c1ccccc1O)c1cccc2ccccc12", "solubility kinetic", 3.5),
]

Recorded solubility kinetic for O=C(Nc1ccccc1O)/C(=C\c1ccccc1)NC(=O)c1ccccc1 , please?
14.9

Recorded solubility kinetic for Cc1ccnc(N2CCCC(C(=O)Nc3ccc(C)c(C)c3)C2)n1 (stereo unspecified) , please?
1.4

Recorded solubility kinetic for COc1ccc(Cl)cc1NC(=O)c1noc(C)c1[N+](=O)[O-] , please?
9

---

Settings: buffer; pH 7.4; 200.0 µM
METRIC: solubility kinetic (µg/mL)
Give the number; µg/mL is assumed, so skip it.

// known answers, use as guide
# COMPOUND, solubility kinetic, µg/mL
measured = [
    ("O=C(Nc1ccc(Cl)c(Cl)c1)Nc1ccccc1O", 8.5),
    ("COc1ccc(NC(=O)CSc2nc3c(c(-c4cccs4)c2C#N)CN(C)CC3)cc1OC", 19.9),
    ("Cc1ccc(CN2C(=O)CSC2c2ccccc2F)cc1 (stereo unspecified)", 14),
    ("O=C(c1cc2cc(Cl)ccc2oc1=O)N1CCCCCCC1", 7.6),
]

Recorded solubility kinetic for COc1ccccc1N(CC(=O)Nc1ccccc1C(F)(F)F)S(=O)(=O)c1cccs1 , please?
9

Recorded solubility kinetic for NC(=O)c1ccc(NC(=O)COC(=O)CCSc2ccccc2)cc1 , please?
15.1

Recorded solubility kinetic for Nc1ncccc1OCc1ccc(Br)cc1 , please?
37.3

Recorded solubility kinetic for O=C1NC(=Nc2ccccc2Cl)SC1(CO)CO , please?
42.3

Recorded solubility kinetic for O=C(Cc1ccccc1)Nc1ccc(NC(=O)c2ccco2)cc1 , please?
4

Recorded solubility kinetic for CC(=O)c1cnc(-c2ccccc2Cl)s1 , please?
8

Recorded solubility kinetic for O=C(OCc1cnc(Cl)s1)c1cccs1 , please?
26.5

---

The following molecules are shown together with reported log10 of solubility kinetic values.
Conditions: buffer; pH 7.4; 200.0 µM
In our notation, the value equals log10 of solubility kinetic in µg/mL.

# MOLECULE, log10 of solubility kinetic
records = [
    ("Cc1ccc(C(=O)N2C(=O)c3cccc(N)c3C2=O)o1", 0.59),
]

Recorded log10 of solubility kinetic for N#Cc1ccc(C(=O)Nc2cccc(NC(=O)c3ccco3)c2)c(F)c1 , please?
0.30

Recorded log10 of solubility kinetic for CCOc1ccc(C(=O)O/N=C(\N)c2ccccn2)cc1 , please?
0.72

Recorded log10 of solubility kinetic for O=C(COC(=O)c1ccc(C(F)(F)F)cc1)Nc1cccc(S(=O)(=O)NC2=NCCCCC2)c1 , please?
1.02

---

Conditions: buffer; pH 7.4; 200.0 µM
The following molecules are shown together with reported solubility kinetic values.
Give the number; µg/mL is assumed, so skip it.

// known answers, use as guide
# MOLECULE, UNITS, READOUT VALUE
measured = [
    ("COC(=O)CSc1ncnc2c(C)csc12", "µg/mL", 29.9),
    ("CCCCNC(=S)N1CCN(c2nc3ccccc3s2)CC1", "µg/mL", 0.9),
    ("Cn1c(=O)[nH]c(=O)c2c1nc(NCCN)n2CCOc1ccccc1", "µg/mL", 49.1),
    ("COc1ccc(C(=O)COC(=O)c2ccc(Cl)nc2)cc1OC", "µg/mL", 10.3),
    ("COc1ccc(CNC(=O)CCCSc2ccccc2)cc1", "µg/mL", 2.4),
]

Recorded solubility kinetic for Cc1ccccc1OCc1nc(-c2cccnc2)no1 , please?
30.2

Recorded solubility kinetic for O=C1N/C(=N/S(=O)(=O)Cc2ccccc2)S/C1=C/c1ccc2c(c1)OCO2 , please?
51

---

Conditions: buffer; pH 7.4; 200.0 µM
The following compounds are shown together with reported solubility kinetic values.

// known answers, use as guide
# COMPOUND, METRIC, READOUT VALUE
records = [
    ("O=C(OCC(=O)C12CC3CC(CC(C3)C1)C2)c1ccccn1", "solubility kinetic", "> 44.9 µg/mL"),
    ("O=C(O)c1cc(-c2cccc3ccccc23)nc2ccccc12", "solubility kinetic", "> 44.9 µg/mL"),
]

Recorded solubility kinetic for CC1CCCC(NC(=O)CSc2cccc[n+]2[O-])C1C (stereo unspecified) , please?
> 44.2 µg/mL

---

Details: buffer; pH 7.4; 200.0 µM
The following compounds are shown together with reported solubility kinetic values.
Give the number; µg/mL is assumed, so skip it.

// known answers, use as guide
# SMILES STR, READOUT VALUE
measured = [
    ("O=C(Nc1ccc(C(=O)N2CCCC2)cc1)c1ccccc1[N+](=O)[O-]", 48.2),
    ("CCOc1ccc2oc(C(=O)NCC(C)(C)CN(C)C)c(C)c2c1.Cl", 48.4),
    ("CCCCc1ccc(NC(=S)N2CCN(C(=O)OCC)CC2)cc1", 2.2),
]

Recorded solubility kinetic for COc1ccc(-c2ncncc2-c2ccc(Cl)cc2)c(O)c1 , please?
1.1

Recorded solubility kinetic for CSc1ccc(Cl)c(C(=O)Nc2ccc(C)cn2)c1 , please?
4.8
